These data points were gathered from patent US7994209B2.

# MEASUREMENT TARGET: hNET (Homo sapiens, UniProt P23975)
# Sequence (P23975 whole entry): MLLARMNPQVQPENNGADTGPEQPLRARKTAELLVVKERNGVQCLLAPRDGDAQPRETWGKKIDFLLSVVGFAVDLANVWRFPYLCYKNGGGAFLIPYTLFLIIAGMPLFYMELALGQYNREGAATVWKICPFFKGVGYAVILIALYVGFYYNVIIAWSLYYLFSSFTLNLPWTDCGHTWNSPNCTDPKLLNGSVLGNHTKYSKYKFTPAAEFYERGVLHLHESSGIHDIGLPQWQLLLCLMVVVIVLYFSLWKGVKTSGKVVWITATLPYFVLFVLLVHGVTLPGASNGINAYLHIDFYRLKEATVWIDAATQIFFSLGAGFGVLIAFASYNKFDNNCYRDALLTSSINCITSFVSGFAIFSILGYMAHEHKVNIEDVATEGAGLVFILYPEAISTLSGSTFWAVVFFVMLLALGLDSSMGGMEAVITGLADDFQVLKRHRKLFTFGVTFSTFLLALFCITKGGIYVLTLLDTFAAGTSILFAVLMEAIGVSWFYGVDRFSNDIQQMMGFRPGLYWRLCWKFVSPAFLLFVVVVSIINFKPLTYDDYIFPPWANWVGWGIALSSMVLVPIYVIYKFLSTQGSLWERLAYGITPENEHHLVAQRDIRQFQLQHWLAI
# ASSAY: fluorescence-based norepinephrine reuptake inhibition assay (Tsuruda et al. 2010; data indicated by an asterisk)
# Assay type: cell-based
# Design: expressed in transfected cells; host or cells: HEK-293
# MEASUREMENT CONTEXT: norepinephrine reuptake inhibition, fluorescence-based assay (values with asterisk); read-out: NET pIC50 (converted)
IC50 values for the compounds below.
REPORTED ENDPOINT: IC50

In [3]: df
Out[3]:
                                   compound  reported_endpoint  reported_value
0  Fc1ccc(Cl)c(Cl)c1O[C@H](C1CC1)[C@H]1CCNC1 [Example 16-60]               IC50         ≤ 10 nM
1  CC(C)C[C@H](Oc1cccc(F)c1Cl)[C@@H]1CCNC1 [Example 10-28]               IC50         ≤ 10 nM
2  CCC[C@H](Oc1ccc(Cl)c(Cl)c1F)[C@H]1CCNC1 [Example 4-52]               IC50         ≤ 10 nM
3  CC[C@@H](Oc1ccc(Cl)c(F)c1)[C@H]1CCNC1 [Example 2-6]               IC50        ≤ 100 nM
4  Clc1cccc(OC(C2CCCC2)C2CCNC2)c1Cl (stereo not drawn) [Example 18-1]               IC50         ≤ 10 nM
5  COc1ccc(F)c(O[C@@H](C2CC2)[C@H]2CCNC2)c1Cl [Example 16-64]               IC50         ≤ 10 nM
6  CC(C)C[C@@H](Oc1cc(F)cc(Cl)c1)[C@H]1CCNC1 [Example 10-83]               IC50         ≤ 10 nM
7  CC(C)C[C@H](Oc1cccc(C(F)(F)F)c1F)[C@H]1CCNC1 [Example 10-21]               IC50         ≤ 10 nM
8  Cc1cc(Cl)ccc1OC(C1CCCC1)C1CCNC1 (stereo not drawn) [Example 18-7]               IC50        ≤ 100 nM

----------
IC50 values for the compounds below.
# MEASUREMENT TARGET: hSERT (Homo sapiens)
# Sequence (P31645 whole entry): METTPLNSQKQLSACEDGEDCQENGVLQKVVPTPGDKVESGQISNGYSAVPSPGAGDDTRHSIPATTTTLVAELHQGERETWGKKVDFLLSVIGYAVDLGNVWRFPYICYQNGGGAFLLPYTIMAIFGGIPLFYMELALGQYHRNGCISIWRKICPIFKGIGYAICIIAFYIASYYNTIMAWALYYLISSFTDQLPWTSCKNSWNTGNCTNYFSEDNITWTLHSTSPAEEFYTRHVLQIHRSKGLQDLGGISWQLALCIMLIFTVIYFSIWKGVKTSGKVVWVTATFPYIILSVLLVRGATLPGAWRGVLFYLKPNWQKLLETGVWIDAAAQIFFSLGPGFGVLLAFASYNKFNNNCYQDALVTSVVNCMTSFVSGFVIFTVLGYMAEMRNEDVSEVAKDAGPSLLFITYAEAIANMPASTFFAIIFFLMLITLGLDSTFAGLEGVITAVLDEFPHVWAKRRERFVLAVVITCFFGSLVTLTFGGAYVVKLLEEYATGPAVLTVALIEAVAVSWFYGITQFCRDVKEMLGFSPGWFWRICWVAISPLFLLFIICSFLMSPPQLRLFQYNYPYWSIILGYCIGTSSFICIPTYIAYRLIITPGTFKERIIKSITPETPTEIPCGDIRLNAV
# ASSAY: hSERT neurotransmitter uptake assay (3H-5-HT), Assay 2
# Type: cell-based
# Design: expressed in transfected cells; host or cells: HEK-293
# MEASUREMENT CONTEXT: serotonin reuptake inhibition, 3H-5-HT uptake, HEK-293 hSERT cells (values without asterisk); read-out: SERT pIC50 (converted)
REPORTED ENDPOINT: IC50

>>> print(df.to_string())
                                    compound  reported_value
 0  CC(C)C[C@H](Oc1ccc(Cl)cc1Cl)[C@H]1CCNC1 [Example 10-42]       ≤ 0.01 µM
 1  CCC[C@H](Oc1ccc(F)cc1)[C@H]1CCNC1 [Example 4-5]        ≤ 0.1 µM
 2  CC(C)CC(Oc1ccccc1Cl)C1CCNC1 (centres unmarked) [Example 10-3]        ≤ 0.1 µM
 3  Cc1cc(Cl)ccc1O[C@@H](C(C)C)[C@H]1CCNC1 [Example 6-45]       ≤ 0.01 µM
 4  CC(C)[C@H](Oc1cc(Cl)cc(Cl)c1)[C@H]1CCNC1 [Example 6-66]       ≤ 0.01 µM
 5  COc1ccccc1O[C@@H](CC(C)C)[C@H]1CCNC1 [Example 10-4]        ≤ 0.1 µM
 6  CC(C)C[C@H](Oc1ccc(Cl)c(F)c1F)[C@H]1CCNC1 [Example 10-68]       ≤ 0.01 µM
 7  CC(C)C[C@H](Oc1ccccc1F)[C@H]1CCNC1 [Example 10-1]        ≤ 0.1 µM
 8  CC(C)C[C@H](Oc1ccc(Cl)cc1F)[C@H]1CCNC1 [Example 10-41]       ≤ 0.01 µM
 9  C=CC[C@H](Oc1cccc(Cl)c1C)[C@H]1CCNC1 [Example 24]       ≤ 0.01 µM
10  COc1cc(Cl)ccc1O[C@@H](CC(C)C)[C@H]1CCNC1 [Example 10-49]       ≤ 0.01 µM
11  CC(C)[C@H](Oc1c(F)cc(Cl)cc1Cl)[C@H]1CCNC1 [Example 6-30]       ≤ 0.01 µM
12  CC(C)C[C@H](Oc1cc(F)c(F)cc1F)[C@H]1CCNC1 [Example 10-57]        ≤ 0.1 µM
13  CC(C)[C@H](Oc1c(F)ccc(F)c1Cl)[C@H]1CCNC1 [Example 6-36]        ≤ 0.1 µM
14  CC(C)CC(Oc1ccc(Cl)cc1C(F)(F)F)C1CCNC1 (centres unmarked) [Example 10-48]       ≤ 0.01 µM
15  CC[C@H](Oc1ccc(Cl)c(F)c1Cl)[C@H]1CCNC1 [Example 2-42]       ≤ 0.01 µM
16  CC(C)[C@H](Oc1c(Cl)c(F)cc(F)c1Cl)[C@H]1CCNC1 [Example 6-38]        ≤ 0.1 µM
17  CC[C@@H](Oc1c(F)ccc(F)c1Cl)[C@H]1CCNC1 [Example 2-41]        ≤ 0.1 µM
18  C=CC[C@H](Oc1ccc(Cl)cc1)[C@H]1CCNC1 [Example 25-1]       ≤ 0.01 µM
19  CCc1cc(F)ccc1O[C@@H](C1CC1)[C@H]1CCNC1 [Example 16-34]       ≤ 0.01 µM
